Where these numbers come from: patent US20070178531A1

# Tested On: T1, Human Id3: Histidine (human, UniProt Q02535 1-119 at identity 1.00))
# T1 construct: Fusion protein made in E. coli from vector pGW07; also called h-Id3: His; Human Id3 (coated wells); not shown: His tag
# T1 chain: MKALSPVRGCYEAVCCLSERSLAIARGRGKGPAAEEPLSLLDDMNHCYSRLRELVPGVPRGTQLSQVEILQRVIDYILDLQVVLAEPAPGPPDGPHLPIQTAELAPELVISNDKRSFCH
# Experiment Description: ELISA, Ab 0.005 µg/ml
Property Measured: A450 (A450)
Field: numeric (A450). Do not append units.

Examples with their reported A450 follow.
- rabbit monoclonal anti-mouse/human Id3, clone #BCH-4/#16-1 (antibody, V domains shown, Rabbit IgG from a rabbit hybridoma; also called m/h Id3 MoAb 16-1) VH: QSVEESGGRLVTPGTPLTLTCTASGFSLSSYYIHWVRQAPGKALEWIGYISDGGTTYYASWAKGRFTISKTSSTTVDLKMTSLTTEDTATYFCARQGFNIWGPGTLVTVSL VL: AVLTQTPSPVSAAVGGTVTISCQSSQSVYNNNWLSWFQQKSGQPPKLLIYETSKLESGVPSRFKGSGSGTQFTLTIIDVQCDDAATYYCLGGYWTTSDNNIFGGGTEVVVK: 0.228
- rabbit monoclonal anti-mouse/human Id3, clone #BCH-4/#17-3 (antibody, V domains shown, Rabbit IgG from a rabbit hybridoma; also called m/h Id3 MoAb 17-3; BCH-3/#17-3) VH: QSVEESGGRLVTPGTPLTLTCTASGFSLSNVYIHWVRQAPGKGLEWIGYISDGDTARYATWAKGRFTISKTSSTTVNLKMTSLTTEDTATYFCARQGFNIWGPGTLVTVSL VL: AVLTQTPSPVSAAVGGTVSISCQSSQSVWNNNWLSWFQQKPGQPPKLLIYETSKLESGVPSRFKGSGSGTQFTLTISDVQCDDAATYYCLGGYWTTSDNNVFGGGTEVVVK: 0.33
- rabbit monoclonal anti-mouse/human Id3, clone #BCH-4/#6-1 (antibody, V domains shown, Rabbit IgG from a rabbit hybridoma; also called m/h Id3 MoAb 6-1) VH: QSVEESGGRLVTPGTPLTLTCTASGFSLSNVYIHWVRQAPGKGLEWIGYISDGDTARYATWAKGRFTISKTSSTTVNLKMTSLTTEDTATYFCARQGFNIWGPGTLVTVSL VL: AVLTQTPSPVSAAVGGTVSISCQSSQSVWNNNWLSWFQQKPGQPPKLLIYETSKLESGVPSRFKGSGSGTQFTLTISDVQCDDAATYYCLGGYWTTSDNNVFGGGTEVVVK: 0.275

The binder rabbit monoclonal anti-mouse/human Id3, clone #BCH-4/#42-1 (antibody, V domains shown, Rabbit IgG from a rabbit hybridoma; also called m/h Id3 MoAb 42-1) VH: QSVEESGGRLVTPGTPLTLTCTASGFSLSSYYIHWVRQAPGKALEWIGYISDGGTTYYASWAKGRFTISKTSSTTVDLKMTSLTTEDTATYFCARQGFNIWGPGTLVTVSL VL: AVLTQTPSPVSAAVGGTVTISCQSSQSVYNNNWLSWFQQKSGQPPKLLIYETSKLESGVPSRFKGSGSGTQFTLTIIDVQCDDAATYYCLGGYWSTSDNNIFGGGTEVVVK showed A450 equal to 0.382
